# ASSAY SUMMARY: probe aXIP binding to arrayed compounds – biochemical, NeuroSMM set, 635/667 nm fluorescence, primary screen (AID 1119);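 note: probe is the protein aXip251-270 applied at 1 µg/mL to compound-printed slides; binding of probe to printed compounds measured as 667 nm fluorescence plus signal to noise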
# ASSAY CONDITIONS: small-molecule microarray, higher = more signal, called active from +8 up or from −8 down
Kindly return rule met if reported composite Z-score is no lower than 0.4; return rule not met if it is lower.

INSERT INTO assay_data (molecule, category_label) VALUES
  ('CCOC(=O)C[C@H]1[C@H](OC(=O)c2ccc(C(=O)c3ccccc3)cc2)[C@@H](NC(=O)C2CCCCC2)c2cc(OCCCO)ccc2N1C(=O)Cc1ccc(OC)cc1', 'rule met'),
  ('COc1ccc(CCNC(=O)[C@@H]2c3ccccc3C(=O)N(Cc3ccccc3)[C@H]2c2ccc(CO)cc2)cc1', 'rule not met'),
  ('CC(C)N1CC=CC23O[C@@H]4C=CCOC(=O)[C@@H]4[C@H]2C(=O)N(CCCCCCO)[C@@H]3C1=O (some centres not stated)', 'rule met'),
  ('COCCOC(=O)N1C(=O)[C@@]2(c3cc(C#CCNC(N)=O)ccc31)[C@H](C(=O)N1CCCCCCC1)[C@H]1C(=O)O[C@H](c3ccccc3)[C@H](c3ccccc3)N1[C@@H]2c1ccc(OCCO)cc1', 'rule not met'),
  ('C=C(CCCC)/C(=C/C[C@H](OC(=O)c1ccncc1)c1ccc(CO)o1)c1cc(C(=O)OC)ccc1OC', 'rule not met'),
  ('COc1cc(NN2C(C(O)c3ccc(I)cc3)C=CC3C(=O)N(C)C(=O)C32)cc(OC)c1OC (configuration not stated)', 'rule met');

* * *

Each entry below carries its reported composite z-score.
# TARGET UNDER TEST: Fibroblast growth factor 2 (Homo sapiens)
# ASSAY SUMMARY: basic fibroblast growth factor binding to printed compounds – biochemical, small-molecule microarray, 635/667 nm fluorescence, primary screen (AID 1133)
# ASSAY CONDITIONS: FGF2, fluorescence 635/667, higher = more signal
QUANTITY NAME: composite z-score

INSERT INTO results (sample_smiles, quantity_name, obs_value) VALUES
  ('CCCNC(=O)[C@@H]1c2ccccc2C(=O)N(CC23CC4CC(CC(C4)C2)C3)[C@H]1c1ccc(CO)cc1', 'composite z-score', 0.871),
  ('C=CCN1C(=O)[C@@]2(O[C@@H](CCO)[C@H]([Si](C)(C)c3ccc(OC)cc3)[C@H]2C)c2cc(NC(=O)[C@H](C)O)ccc21', 'composite z-score', 0.0211),
  ('COC(=O)[C@@]1(Cc2ccccc2)[C@H]2c3cc(C(=O)N(C)C)n(Cc4ccc(O)c(OC)c4)c3C[C@H]2CN1C(=O)c1ccccc1', 'composite z-score', -0.875),
  ('CC(C)(C)OC(=O)CC[C@]1(C(=O)O)COC(c2ccc(OCCCO)cc2)=N1', 'composite z-score', -1.23),
  ('C=C[C@H](C)[C@H](OC(=O)Nc1ccc(SC)cc1)c1ccc(O)c2ccccc12', 'composite z-score', 0.162),
  ('CN(C)CCCCNC(=O)[C@H]1C[C@H]2C(=O)N[C@@H](CCCC[N+](C)(C)C)C(=O)N2[C@H]1c1cccc(OCCO)c1', 'composite z-score', 1.67),
  ('NC(=O)[C@H]1[C@@H]2C(=O)O[C@@H](c3ccccc3)[C@@H](c3ccccc3)N2[C@@H](c2ccc(O)cc2)[C@]12C(=O)Nc1ccc(C#CC3(O)CCCCCC3)cc12', 'composite z-score', 1.58);
